- Tested on: MDA-MB-231
- ASSAY_OVERVIEW: NCI tumour cell line growth inhibition, 48 h
Calls of active or inactive are those of the source. No stated cut-off is given here; in the data, active = GI50 up to about 1.1 µM and inactive = higher.
// allowed return values: active, inactive

>>> print(df.to_string())
                                   compound  assigned_label
0   CCOC(=O)c1c(SCc2ccccc2)nc2c3ccccc3ccn12        inactive
1  O=S(=O)(N=S(c1ccc(Cl)cc1)c1ccc(Cl)cc1)c1ccccc1        inactive
2           Cc1cccc(NC(=O)/C=C/c2ccccc2)c1C        inactive
3  CC(=O)OCC(C)(COC(C)=O)N1C(=O)C2C3c4ccccc4C(c4ccccc43)C2C1=O (stereo unspecified)        inactive
4   Cc1nc2ccc(NCCN(C)C)c3c(=O)c4ccccc4n1c23          active
5  Cc1ccc(S(=O)(=O)N(CC(O)COc2ccccc2)c2ccccc2Cl)cc1 (stereo unspecified)        inactive

Prompt: // outcome(item) with item = `O=P1(O)c2ccccc2Nc2cc(C(F)(F)F)ccc21`
Response: inactive

Prompt: // outcome(item) with item = `NS(=O)(=O)c1ccc(/N=N/c2cccnc2O)cc1`
Response: inactive

Prompt: // outcome(item) with item = `O=C(c1cccc(OCc2ccccc2)c1OCc1ccccc1)N1CCSC1=S`
Response: inactive

Prompt: // outcome(item) with item = `O=C1C=CC(=O)c2c(O)c(N(CCCl)CCCl)c(Cl)c(O)c21`
Response: inactive

Prompt: // outcome(item) with item = `CN(CCCNCc1ccccn1)Cc1ccccc1O`
Response: inactive
